- Tested on: A/PuertoRico/8/1934 (H1N1) virus
- testMethodNotes: microbe, parasite or virus in culture
- Format: cell-based, influenza A virus
- statedConditions: Influenza A virus, H1N1, U-937, 48 h
Counter-ions that a name gives are not always drawn.
Reported values of pIC50 for individual entries
Note: pIC50 values are expressed as the negative base-10 logarithm of concentration in M.

Sample records with pIC50:
Cc1cccc(C(C)c2cnc[nH]2)c1C (stereo not drawn) [Medetomidine HCl] :: 4.90
O=C(c1ccc(OCCCc2cnc[nH]2)cc1)C1CC1 [Ciproxifan] :: 5.85

Input line: So what does the record say about pIC50 for OC(CNCC(O)C1CCc2cc(F)ccc2O1)C1CCc2cc(F)ccc2O1 (stereo not drawn) [Nebivolol] ?
Output line: 5.01

Input line: For CN1CCCC(n2nc(Cc3ccc(Cl)cc3)c3ccccc3c2=O)CC1 (stereo not drawn) [Azelastine HCl] then?
Output line: 5.08

Input line: And what about the compound CN(C)[C@@H](CCOc1cccc2ccccc12)c1ccccc1 [Dapoxetine HCl] ?
Output line: 5.18

Input line: What do we get for CCCN1C[C@H](CSC)C[C@@H]2c3cccc4[nH]cc(c34)C[C@H]21 [Pergolide mesylate] ?
Output line: 5.15

Input line: Again, but for Cc1ccc(OCC(O)C(C)NC(C)C)c2c1CCC2 (stereo not drawn) [ICI-118551]
Output line: 5.24

Input line: Next record, please: O=C(C[S+]([O-])Cc1ccco1)NC/C=C\COc1cc(CN2CCCCC2)ccn1 (stereo not drawn) [Lafutidine]
Output line: 4.83

Input line: Would you mind doing Cc1ccc(N(CC2=NCCN2)c2cccc(O)c2)cc1 [Phentolamine Mesylate] as well?
Output line: 6.00
